Target: MAPKAPK2 (MK-2) (Homo sapiens, UniProt P49137)
Sequence (P49137 whole entry, species assumed): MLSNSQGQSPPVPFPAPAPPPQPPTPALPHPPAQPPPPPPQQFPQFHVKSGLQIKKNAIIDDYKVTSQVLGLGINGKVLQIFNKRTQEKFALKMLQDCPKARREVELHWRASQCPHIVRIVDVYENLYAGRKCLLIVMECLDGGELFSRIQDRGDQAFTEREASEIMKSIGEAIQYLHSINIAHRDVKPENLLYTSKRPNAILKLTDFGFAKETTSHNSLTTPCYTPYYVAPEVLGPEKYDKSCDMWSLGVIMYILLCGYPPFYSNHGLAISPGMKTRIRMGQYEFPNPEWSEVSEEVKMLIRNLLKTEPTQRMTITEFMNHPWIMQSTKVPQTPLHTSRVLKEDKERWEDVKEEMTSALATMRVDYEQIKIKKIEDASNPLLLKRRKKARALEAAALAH
Test: Determination of MK-2 IC50 (HSP-peptide phosphorylation, anion exchange resin capture assay)
Type: biochemical
Settings: Table 5, other cyclic pyrazole MK-2 inhibiting compounds; read-out: MK-2 Avg. IC50
outcome-measure: IC50 (nM)

smiles_entry=COc1ccc(/C=C/c2cc3c(cn2)CCc2c-3nn3c2C(=O)NCC3)cc1 units_label=nM recorded_measurement=4760
smiles_entry=COc1cccc(/C=C/c2cc3c(cn2)CCc2c-3nn3c2C(=O)NCC3)c1 units_label=nM recorded_measurement=328
smiles_entry=O=C1NCCn2nc3c(c21)CCc1cnc(/C=C/c2ccc4c(c2)OCO4)cc1-3 units_label=nM recorded_measurement=223
smiles_entry=O=C1NCCn2nc3c(c21)CCc1cnc(/C=C/c2cccc(Cl)c2)cc1-3 units_label=nM recorded_measurement=2920
smiles_entry=O=C(O)c1c2c(nn1CCCNCCc1ccc(/C=C/c3ccccc3)cc1)-c1cc(/C=C/c3ccccc3)ncc1CC2 units_label=nM recorded_measurement=528
smiles_entry=CCOC(=O)c1c2c(nn1CCCN)-c1cc(/C=C/c3ccccc3)ncc1CC2 units_label=nM recorded_measurement=3610
smiles_entry=NCCCn1nc2c(c1C(=O)O)CCc1cnc(/C=C/c3ccccc3)cc1-2 units_label=nM recorded_measurement=32.9
smiles_entry=O=C1NCCn2nc3c(c21)CCc1cnc(/C=C/c2ccc(C(F)(F)F)cc2)cc1-3 units_label=nM recorded_measurement=2260
smiles_entry=O=C1NCCn2nc3c(c21)CCc1cnc(/C=C/c2ccccc2F)cc1-3 units_label=nM recorded_measurement=4460
smiles_entry=O=C1NCCn2nc3c(c21)CCc1cnc(/C=C/c2ccc(F)cc2)cc1-3 units_label=nM recorded_measurement=749
smiles_entry=O=C1NCCn2nc3c(c21)CCc1cnc(/C=C/c2cccc(O)c2)cc1-3 units_label=nM recorded_measurement=21.1
smiles_entry=O=C1NCCn2nc3c(c21)CCc1cnc(/C=C/c2ccc(Cl)cc2)cc1-3 units_label=nM recorded_measurement=536
smiles_entry=O=C1NCCn2nc3c(c21)CCc1cnc(/C=C/c2ccc(F)c(F)c2)cc1-3 units_label=nM recorded_measurement=623
smiles_entry=NCCn1nc2c(c1C(=O)O)CCc1cnc(/C=C/c3ccccc3)cc1-2 units_label=nM recorded_measurement=41.3
smiles_entry=O=C(O)c1c2c(nn1CCCNCCc1ccc(Br)cc1)-c1cc(/C=C/c3ccccc3)ncc1CC2 units_label=nM recorded_measurement=280

---

Biological target: UniProtKB Q16644
Experiment: MK-3 inhibition IC50 (similar method to MK-2, with appropriate modifications)
Assay type: biochemical
Details: Table 1, phenoxypyrazole MK-2 inhibitors; read-out: MK-3 Avg. IC50
pIC50: −log10 of the molar value.
outcome-measure: pIC50

molecule="O=C(O)c1n[nH]c2c1CC(c1ccccc1)c1cc(O)ccc1-2 (centres unmarked) [Example 113]" recorded_measurement="< 3.70"
molecule="NCCn1nc2c(c1C(=O)O)CCc1cc(O)c(Br)cc1-2 [Example 5]" recorded_measurement="< 3.70"
molecule="COC(=O)c1nn(-c2ccc(S(C)(=O)=O)cc2)c2c1CCc1cc(OC)ccc1-2 [Example 164]" recorded_measurement="< 3.70"
molecule="COc1cc2c(cc1-c1cccc(S(C)(=O)=O)c1)-c1nn(CCCNC(=O)OC(C)(C)C)c(C(=O)O)c1CC2 [Example 57]" recorded_measurement="< 3.70"
molecule="CNC(=O)c1[nH]nc2c1CCc1cc(O)ccc1-2 [Example 69]" recorded_measurement="< 3.70"
molecule="Cn1nc2c(c1C(N)=O)CCc1cc(O)ccc1-2 [Example 71]" recorded_measurement="< 3.70"
molecule="COc1cc2c(cc1-c1ccc(C(C)(C)C)cc1)-c1nn(CCCNC(=O)OC(C)(C)C)c(C(=O)O)c1CC2 [Example 42]" recorded_measurement="< 3.70"
molecule="CC1Cc2cc(O)ccc2-c2n[nH]c(C(N)=O)c21 (centres unmarked) [Example 68]" recorded_measurement=3.71
molecule="CCN(CC)CCNC(=O)c1nn(-c2ccc(Cl)cc2)c2c1CCc1cc(OC)ccc1-2 [Example 171]" recorded_measurement="< 3.70"
molecule="COc1cc2c(cc1OC)-c1n[nH]c(C(=O)NN)c1CC2 [Example 170]" recorded_measurement="< 3.70"
molecule="CS(=O)(=O)c1cccc(-c2cc3c(cc2O)CCc2c-3nn(CCCN)c2C(=O)O)c1 [Example 16]" recorded_measurement="< 3.70"
molecule="COc1cc2c(cc1OC)-c1c(c(C(N)=O)nn1-c1ccc(S(N)(=O)=O)cc1)CC2 [Example 175]" recorded_measurement="< 3.70"
molecule="Cn1nc2c(c1C(=O)O)CCc1cc(O)ccc1-2 [Example 34]" recorded_measurement="< 3.70"
molecule="C=CCn1nc2c(c1C(N)=O)CCc1cc(OCOCCOC)ccc1-2 [Example 80]" recorded_measurement="< 3.70"
molecule="NCCCn1nc2c(c1C(=O)O)CCc1cc(O)ccc1-2 [Example 4]" recorded_measurement=4.42
molecule="Cc1noc(C)c1-c1cc2c(cc1O)CCc1c-2nn(CCCN)c1C(=O)O [Example 55]" recorded_measurement=3.77
molecule="CNc1ccc(-c2cc3c(cc2O)CCc2c-3nn(CCCN)c2C(=O)O)cc1 [Example 21]" recorded_measurement="< 3.70"
molecule="NCCCn1nc2c(c1C(=O)O)CCc1cc(O)c(-c3cccc(C(F)(F)F)c3)cc1-2 [Example 11]" recorded_measurement=4.14
molecule="COc1ccc(-n2nc(C(=O)O)c3c2-c2ccc(OC)cc2CC3)cc1 [Example 162]" recorded_measurement="< 3.70"
molecule="COc1ccc2c(c1)CCc1c(C(=O)NCCCN(C)C)nn(-c3ccc(Cl)cc3)c1-2 [Example 161]" recorded_measurement="< 3.70"
molecule="COC(=O)c1[nH]nc2c1CCc1cc(OC)c(Br)cc1-2 [Example 183]" recorded_measurement="< 3.70"
molecule="COc1cc2c(cc1OC)-c1n[nH]c(C(=O)O)c1CC2 [Example 173]" recorded_measurement="< 3.70"
molecule="O=C1NCCCn2nc3c(c21)CCc1cc(O)c(-c2cccc([N+](=O)[O-])c2)cc1-3 [Example 3]" recorded_measurement="< 3.70"
molecule="NCCCn1nc2c(c1C(=O)O)CCc1cc(O)c(CCc3ccc(Cl)cc3)cc1-2 [Example 6]" recorded_measurement=4.42
molecule="NCCCn1nc2c(c1C(=O)O)CCc1cc(O)c(-c3cccc([N+](=O)[O-])c3)cc1-2 [Example 1]" recorded_measurement=3.94
molecule="CCOC(=O)c1[nH]nc2c1CCc1cc(O)ccc1-2 [Example 70]" recorded_measurement="< 3.70"
molecule="COc1cc2c(cc1-c1cccc([N+](=O)[O-])c1)-c1nn(CCCNC(=O)OC(C)(C)C)c(C(=O)O)c1CC2 [Example 37]" recorded_measurement="< 3.70"
molecule="CC(C)(CCc1cc2c(cc1O)CCc1c-2nn(CCCN)c1C(=O)O)CC(=O)O [Example 26]" recorded_measurement=3.87
molecule="NCCCn1nc2c(c1C(=O)O)CCc1cc(O)c(-c3cccc(Cl)c3)cc1-2 [Example 13]" recorded_measurement=3.92
molecule="COc1cc2c(cc1-c1ccc([N+](=O)[O-])cc1)-c1nn(CCCNC(=O)OC(C)(C)C)c(C(=O)O)c1CC2 [Example 32]" recorded_measurement=3.94
molecule="CC1Cc2c(n[nH]c2C(=O)O)-c2ccc(O)cc21 (centres unmarked) [Example 48]" recorded_measurement="< 3.70"
molecule="CC1Cc2cc(O)ccc2-c2n[nH]c(C(=O)O)c21 (centres unmarked) [Example 59]" recorded_measurement="< 3.70"
molecule="COc1cc2c(cc1-c1ccccc1Cl)-c1nn(CCCNC(=O)OC(C)(C)C)c(C(=O)O)c1CC2 [Example 52]" recorded_measurement="< 3.70"
molecule="NCCCn1nc2c(c1C(=O)O)CCc1cc(O)c(N)cc1-2 [Example 27]" recorded_measurement="< 3.70"
molecule="COc1cc2c(cc1CCc1ccc(Cl)cc1)-c1nn(CCCNC(=O)OC(C)(C)C)c(C(=O)O)c1CC2 [Example 40]" recorded_measurement="< 3.70"

---

Target: MK-3 (Homo sapiens, UniProt Q16644)
Sequence (Q16644 whole entry, species assumed): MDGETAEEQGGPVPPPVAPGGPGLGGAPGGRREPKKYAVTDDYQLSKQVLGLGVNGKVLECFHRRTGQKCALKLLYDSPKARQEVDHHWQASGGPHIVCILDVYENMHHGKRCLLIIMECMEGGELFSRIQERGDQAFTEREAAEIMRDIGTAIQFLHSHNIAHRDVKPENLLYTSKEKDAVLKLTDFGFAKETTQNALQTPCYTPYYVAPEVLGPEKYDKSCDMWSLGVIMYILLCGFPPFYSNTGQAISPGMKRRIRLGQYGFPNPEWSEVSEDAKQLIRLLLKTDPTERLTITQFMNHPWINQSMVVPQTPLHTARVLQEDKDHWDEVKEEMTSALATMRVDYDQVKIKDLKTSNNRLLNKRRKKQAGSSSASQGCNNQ
Assay: MK-3 inhibition IC50 (similar method to MK-2, with appropriate modifications)
Format: biochemical
Settings: read-out: MK-3 Avg. IC50
pIC50: −log10 of the molar value.
outcome-measure: pIC50

compound="NCCCn1nc2c(c1C(=O)O)CCc1cnc(-c3ccc(F)c(F)c3)cc1-2 [Example 17]" outcome_measure=pIC50 recorded_measurement=5.76
compound="O=C(O)c1c2c(nn1CCCNCCc1ccc(-c3ccc(C(F)(F)F)cc3)cc1)-c1ccncc1CC2 [Example 26]" outcome_measure=pIC50 recorded_measurement=5.04
compound="O=C(O)c1c2c(nn1CCCNCCc1ccc(Cl)c(Cl)c1)-c1ccncc1CC2 [Example 34]" outcome_measure=pIC50 recorded_measurement=4.99
compound="NCCCCn1nc2c(c1C(=O)O)CCc1cnccc1-2 [Example 113]" outcome_measure=pIC50 recorded_measurement=3.76
compound="O=C(O)c1c2c(nn1CCCNCCc1ccc(-c3cccc(C(F)(F)F)c3)cc1)-c1ccncc1CC2 [Example 21]" outcome_measure=pIC50 recorded_measurement=4.98
compound="O=C(O)c1c2c(nn1CCCNCCc1cccs1)-c1ccncc1CC2 [Example 41]" outcome_measure=pIC50 recorded_measurement=4.80
compound="O=C1NCCCn2nc3c(c21)CCc1cnc(Nc2ccccc2)cc1-3 [Example 131]" outcome_measure=pIC50 recorded_measurement=4.60
compound="NCc1cccc(-c2ccc(CCNCCCn3nc4c(c3C(=O)O)CCc3cnccc3-4)cc2)c1 [Example 67]" outcome_measure=pIC50 recorded_measurement=5.00
compound="NCCCn1nc2c(c1C(=O)O)CCc1cnccc1-2 [Example 64]" outcome_measure=pIC50 recorded_measurement=4.64
